# assayed_system: human Mac-1 (integrin αMβ2, CD11b/CD18) (human, UniProt P11215 17-1152; P05107 23-769)
# measurement_protocol: flow cytometry, HEK293/Mac-1 cells, PBS/MnCl2 (Mn2+), 10 µg/ml of this antibody; binding of reporter mAb m24 read
metric: m24 (Expression relative to IgG4)

Some binders with known m24 (Expression relative to IgG4) results, for comparison:
binder	data_value
anti-Mac-1 antibody clone 24F08 (antibody, human IgG4, V domains shown) VH: EVQLVESGGGLVQPGGSLRLSCAASGFTFSSYWMSWVRQAPGKGLEWVSIINYSGREADYADSVKGRFTISRDNSKNTLYLQMNSLRAEDTAVYYCARDGSYVGQAHEAFDIWGQGTLVTVSS VL: DIQMTQSPSSLSASVGDRVTITCRASQSISKYLAWYQQKPGKAPKLLIYGTSNLQSGVPSRFSGSGSGTDFTLTISSLQPEDFATYYCQQSRSWPLTFGQGTKVEIK	4.01 relative to IgG4
anti-Mac-1 antibody clone 27A06 (antibody, human IgG4, V domains shown) VH: QVKLQQSGPELVTPGASVKISCKPSGYSFTDYNMNWVKQSNGKSLEWIGEINPNYGTTRHNQKFKGKASLTVDQSSSTAYMQLISLTSEDSAVYYCARTYDYDEDAFAYWGQGTTVTVSS VL: DIELTQSPAIMSASPGEKVTMTCSASSSVSYMHWYQQKSDTSPKRWIYDTSKLASGVPARFSGSGSGTSYSLTISSMEAEDAATYYCQQWSSNPPTFGAGTKLELK	0.88 relative to IgG4

Here is the next item to consider.
Per the records, this binder ( anti-Mac-1 antibody clone 28D06 (antibody, human IgG4, V domains shown) VH: QVKLQQSGPELVKPGASVKISCKASGYSFTDYNMNWVKQSNGKSLEWIGEINPNYGTTRYNQKFKGKATLTVDQSSSTAYMQLNSLTSEDSAVYYCARPSIYYDYDDAMDYWGQGTTVTVSS VL: DIELTQSPAIMSASPGEKVTMTCSASSSVNYMYWYQQKPGSSPRLLIYDTSNLASGVPVRFSGSGSGTSYSLTISRMEAEDAATYYCQQWITYPPTLTFGAGTKLEIK ) has m24 (Expression relative to IgG4) equal to 0.62 relative to IgG4
